These data points were gathered from patent US20200071424A1.

experimental target: cynomolgus monkey EL (cynomolgus monkey)
assay procedure: cell-based or functional assay
recorded metric: Neutralizing activity IC50 (nM)
Quick reminder: number only, in nM, skip the unit.

Query string: Could you share which Neutralizing activity IC50 value was measured for 16B3 (antibody, mouse IgG2a, V domains shown, mouse IgG2a from hybridoma; also called 16B3 (mouse mAb)) VH: DVKLVESGGGLVQPGGSLKLSCTASGFTFSGYTMSWVRQTPEKRLELVAEISFARDRAFYPDTVKGRFTISRDNAKNTLYLQMSSLKSEDTAMYYCTRLGGRNHDYWYFDVWGTGTTVTVSS VL: DIVLTQSPTSLAVSPGQRATISCRASESVEYYGTSLMQWYQQKPGQRPQLLIYAASNVESGVPARFSGSGSGTDFSLNIHPVEEDDIAVYFCQQSWKVPFTFGSGTKLEIK ?
Result string: 1.8
